Value source: patent US9717243B2

Assay: LogP by HPLC on reversed phase columns (EEC directive 79/831 Annex V.A8)
Type: physicochemical
Conditions: Table 2, compounds of formula (IV); LC-UV, acidic range, 0.1% formic acid in water and acetonitrile as eluent; read-out: Log P[a]
Each record here notes measured chromatographic logP.
Form: value (number only, do not type unit).

INSERT INTO results (compound, numeric_result) VALUES
  ('COC(=O)C1(C#N)CCN(C(=O)Cn2nc(C(F)F)cc2C(F)F)CC1 [IV-13]', 2.26);

Prompt line: Given the entry COC(=O)C1(C#N)CCN(C(=O)Nc2cc(C(F)F)nn2C)CC1 [IV-17] , report its measured chromatographic logP.
Response line: 1.53
